This collection of values is drawn from paper PMC3379994.

Target: Src (Homo sapiens, UniProt P12931)
Conditions: n = 3
Description: To characterize the binding of SH3-phages to recombinant proteins, phage-ELISA analyses were performed. First, 1 µg of recombinant protein per well was immobilized on 96-well MaxiSorp plates (Nunc) over night. […] After washing again 10 times, TMB substrate solution was added, the reaction finally stopped by addition of 0.5 M H2SO4, and the result read out by measuring OD450. First, we aimed at quantifying the binding affinities of the SH3-displaying phages to Sam68. […]
Observable: pKd
One number for each entry, as −log10 of the molar value.

Exercise: Given the entry Src-associated in mitosis 68 kDa (KHDRBS1), full-length, N-terminally His-tagged recombinant [Sam68] , report its measured pKd.
Solution: 8.22
